Each recorded value in this set is attributed to PubChem BioAssay AID1159580.

# Assay Summary: chemical genetic growth profiling, strain panel (AID 1159580);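 note: tested at 20 µM; growth read once vehicle control cultures reached saturation at 30 °C; 1 = growth at the plate median or of vehicle wells; lower values mean less growth of the strain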
# Assay Setup: S. cerevisiae deletion strains, growth OD, locus YOR061W, strain CKA2, hits give low values
The whole screen tested about 5,500 compounds, of which about 2,000 (36%) were called active. About 18% were inconclusive and are not listed. Some of the results follow.
Give measured normalized growth for each item. Keep answers brief.
The reply should be a number, written without any unit.

// query normalized growth value for entry CC(C)(C)c1cc(C(=O)/C(C#N)=N\Nc2ccc(Cl)cc2)no1
0.103

Need normalized growth, item COc1cc(O)c(C(=O)c2ccccc2)c(OC)c1
0.989

Which normalized growth value belongs to COc1cc(O)c(C(C)=O)c(OC)c1 ?
1.03

I have this molecule here, CC1CCc2c(sc3ncnc(Sc4ccccc4)c23)C1 (stereo not given) , and I need its recorded normalized growth.
0.935

I would be grateful if you could share the reported normalized growth for N#C/C(=N/Nc1ccc(Cl)cc1)C(N)=S .
0.23

---

# Assay Summary: chemical genetic growth profiling, strain panel (AID 1159580)
# Assay Setup: S. cerevisiae deletion strains, growth OD, locus YOR001W, strain rrp6, hits give low values
Hit rate of the full screen: of about 5,500 compounds, about 2,000 (36%) were called active. Not shown: some 18% with an inconclusive outcome. The list shows a part of the results.
Quantity Kind: normalized growth

Report normalized growth for NCCS please.
0.992 (inactive)

GET /values?readout=normalized growth&item= CCCCC(=O)N(Cc1ccc(-c2ccccc2-c2nn[nH]n2)cc1)[C@H](C(=O)O)C(C)C
0.988 (inactive)

Quick check: normalized growth of CC1(C)C[C@@H]2C(=O)CC[C@H]3O[C@]3(C)CC[C@H]21 ?
1.02 (inactive)

Can you share its normalized growth? I mean this compound: CN(C)c1nc(N(C)C)nc(N(C)C)n1
0.987 (inactive)

Record request: normalized growth value, item O=C(/C=C/C(=O)Oc1ccccc1C(=O)O)Oc1ccccc1C(=O)O
1 (inactive)

For Nc1ncnc2nc[nH]c12 , what is its reported normalized growth?
1 (inactive)

---

# Assay Summary: chemical genetic growth profiling, strain panel (AID 1159580);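 note: tested at 20 µM; growth read once vehicle control cultures reached saturation at 30 °C; 1 = growth at the plate median or of vehicle wells; lower values mean less growth of the strain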
# Assay Setup: S. cerevisiae deletion strains, growth OD, locus YLR133W, strain CKI1
The campaign covered roughly 5,500 compounds. About 2,000 (36%) were called active. About 18% were inconclusive and are not listed. Rule as the data show it: active = normalized growth mostly below about 0.91 (no sharp cut-off); inconclusive = no clear call, values can overlap the other calls; inactive = mostly above about 0.92. The list shows a part of the results.
Thanks in advance; please answer with one of these: YES = active, NO = inactive

What was the test verdict on FC(F)(F)c1ccc(NC(=S)Nc2ccc(C(F)(F)F)cc2Cl)c(Cl)c1 ?
NO

Hey, what did the test say about N#C/C(=N/Nc1ccc(C(F)(F)F)cc1)C(=O)C1CC1 ?
NO

Recorded test outcome, item O=C(Nc1ccc(OC(F)(F)F)cc1)Nc1cncc(C(F)(F)F)c1
NO

Per the assay record, what outcome was assigned to N#CC(C#N)=NNc1ccc(C(F)(F)F)cc1 ?
YES

Please share the test call associated with O=C1OC(Nc2ccccc2SCc2ccccc2Cl)c2ccccc21 (centres undefined) .
NO

Test call for this molecule, please: Cc1c(Cl)cccc1N=C1SCC(=O)N1Cc1ccco1
NO

How did this test come out for O=C(Nc1ccc(Cl)cc1)c1csc([N+](=O)[O-])c1 ?
NO

Write down the call the test reported for this molecule. Item: CC(NC(=S)Nc1ccc(Oc2ccc(Cl)cc2)cc1)c1ccccc1 (centres undefined)
NO

I would be grateful if you could indicate the recorded call for CC1CCc2c(sc3ncnc(Sc4ccccc4)c23)C1 (centres undefined) .
NO

Entry O=C(Oc1ccc(C2SCCS2)cc1)c1cccs1 : call = ?
NO

Hi, do you know how O=C1CSC(=Nc2cc(Cl)cc(Cl)c2)N1Cc1cccnc1 came out in this test?
NO

Please indicate how the test categorized O=C(NNc1c(Cl)cccc1Cl)c1ccc([N+](=O)[O-])o1 .
NO

How was Cc1nc([N+](=O)[O-])cn1CC(=O)c1ccc(Cl)cc1 classified in this test?
NO

Just curious, what result did O=C(c1ccc(Cl)cc1)N1CCN(c2ccc(C(F)(F)F)cn2)CC1 get here?
NO

Hey, what did the test say about N#Cc1c(N)sc2c1CCc1ccccc1-2 ?
YES

Could you check what this test reported for N/C(=N/OC(=O)c1ccccc1Cl)c1cccc(CS(=O)(=O)c2ccc(Cl)cc2)c1 ?
NO

Could you check what this test reported for Nc1ccccc1C(=O)N/N=C\c1cc(Cl)cc(Cl)c1O ?
YES

Answer briefly: the call reported for NNC(=O)COc1ccc(C2SCCS2)cc1 in this assay.
YES

Write down the call the test reported for this molecule. Item: CSC(SC)=C(C#N)C(=O)c1ccccc1Cl
YES

Per the assay record, what outcome was assigned to C(=NC(N=Cc1ccccc1)c1ccccc1)c1ccccc1 (centres undefined) ?
NO

Look up the recorded call for CC(C)(C)c1cc(C(=O)/C(C#N)=N\Nc2ccc(Cl)cc2)no1 in this test.
YES

What classification did Cc1oc(-c2ccc(Cl)cc2)cc1C(=O)N1CCN(c2ccc(C(F)(F)F)cn2)CC1 end up with in this test?
NO

Answer briefly: the call reported for COC(=O)c1ccc(Oc2c(C(F)(F)F)oc3cc(O)ccc3c2=O)cc1 in this assay.
NO

I'd appreciate the recorded outcome for O=C(NCc1ccc(F)c(Cl)c1)Nc1csc([N+](=O)[O-])c1 from this test.
NO

Hello, I am checking results. What call was entered for O=C(SCc1c(Cl)cccc1Cl)c1ccc([N+](=O)[O-])o1 ?
YES

In this assay, the call recorded for COc1cccc(C(=O)C(C#N)=C(SC)SC)c1 was what?
YES

Called result for CCOC(=O)C(O)(c1ccc(NC(=O)Nc2ccc(Cl)cc2)cc1)C(F)(F)F (centres undefined)
NO

Please share the test call associated with N/C(=N/OC(=O)c1ccccc1Cl)c1ccc2nonc2c1 .
NO

How did this test come out for O=C(O)c1cccc2cccc(C(=O)O)c12 ?
YES

---

Could you please report measured normalized growth for the items listed next?
# Assay Summary: chemical genetic growth profiling, strain panel (AID 1159580);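 note: tested at 20 µM; growth read once vehicle control cultures reached saturation at 30 °C; 1 = growth at the plate median or of vehicle wells; lower values mean less growth of the strain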
# Assay Setup: S. cerevisiae deletion strains, growth OD, locus YOR001W, strain rrp6, hits give low values
The campaign covered roughly 5,500 compounds. About 2,000 (36%) were called active. About 18% were inconclusive and are not listed. The list shows a part of the results.
Give the figure only, with no unit attached.

Tell me the measured normalized growth of COc1cc2ccc(=O)oc2c(OC)c1OC , please.
1.02

Which normalized growth is listed for Nc1ncnc2c1ncn2[C@@H]1O[C@H](CO)[C@@H](O)[C@@H]1O ?
1.02

Please give the measured normalized growth for this compound: CC(C)=CCC/C(C)=C/COc1ccc2ccc(=O)oc2c1
0.989

Item under review: COc1ccc2ccc(=O)oc2c1CC=C(C)C . Reported normalized growth?
0.889

Which normalized growth is listed for CCNc1nc(Cl)nc(NC(C)C)n1 ?
0.998

Request the reported normalized growth associated with COc1ccc2[nH]cc(CCNC(C)=O)c2c1
0.988

Item O=c1ccc2cc(O[C@@H]3O[C@H](CO)[C@@H](O)[C@H](O)[C@H]3O)c(O)cc2o1 has what recorded normalized growth?
0.987

Which normalized growth reading was recorded for the compound Cc1cc(C)nc(NS(=O)(=O)c2ccc(N)cc2)n1 ?
1

If you can, please state the reported normalized growth value of COc1cc2ccc(=O)oc2c2ccoc12 .
0.732

Quick one: normalized growth of CCCCCN=C(N)N/N=C\c1c[nH]c2ccc(OC)cc12 ?
0.995

Recorded normalized growth of CC(C)(O)CC[C@@H](O)[C@](C)(O)C1CC[C@@]2(O)C3=CC(=O)C4C[C@@H](O)[C@@H](O)C[C@]4(C)C3CC[C@]12C (some centres not stated) , please.
1.01

Which normalized growth is listed for COc1cc2c(cc1-c1coc3c4c(c(OC)cc3c1=O)OC(C)(C)C=C4)OCO2 ?
1.02

---

Would you mind telling me the reported normalized growth of each entry?
# Assay Summary: chemical genetic growth profiling, strain panel (AID 1159580);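 note: tested at 20 µM; growth read once vehicle control cultures reached saturation at 30 °C; 1 = growth at the plate median or of vehicle wells; lower values mean less growth of the strain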
# Assay Setup: S. cerevisiae deletion strains, growth OD, locus YPL051W, strain arl3, hits give low values
In all, about 5,500 compounds went through this assay and about 2,000 (36%) were called active. Roughly 18% stayed inconclusive and do not appear here. Some of the results follow.
I'd appreciate a reply containing only the number, no unit.

I'd like to know its normalized growth. The compound in question is CCCCC(=O)O[C@H]1CCC2C3CCc4cc(O)ccc4C3CC[C@@]21C (stereo partly specified)
1.01

For the compound shown here, COc1cc(OC)c2c(=O)c(-c3ccc4c(c3)OCO4)coc2c1 , give the reported normalized growth.
1.01

Entry COc1c(O)cc(O)cc1O : reported normalized growth = ?
1

# input compound: CC(=O)O[C@H]1CC2CCC3C(CC[C@@]4(C)C3C[C@H]([N+]3(C)CCCCC3)[C@@H]4OC(C)=O)[C@@]2(C)C[C@@H]1[N+]1(C)CCCCC1 (stereo partly specified) ; wanted: its normalized growth
1.02

Return reported normalized growth; argument: CC(=O)Oc1ccc2c(c1)CCC1C2CC[C@@]2(C)C1CC[C@@H]2OC(C)=O (stereo partly specified)
1.01

Look up normalized growth for this compound: O=c1c(-c2ccc3c(c2)OCO3)coc2cc(O)ccc12
0.99

Form field: reported normalized growth of COc1cc(OC)c(C(C)=O)c(O)c1C
0.972

For O=C(O)c1cccc(O)c1O , what is its reported normalized growth?
1.02

Which normalized growth value is on record for CC1(C)C[C@@H]2C(=O)CC[C@H]3O[C@]3(C)CC[C@H]21 ?
1

Which measured normalized growth value corresponds to CCCCCN=C(N)N/N=C\c1c[nH]c2ccc(OC)cc12 ?
1

Value lookup for normalized growth; key = CC(C(=O)O)c1ccc(N2Cc3ccccc3C2=O)cc1 (stereo unspecified)
0.995
